Kb: recorded values
# system name: hGnRH receptor (Homo sapiens)
# Construct: expressed in transfected cells; host or cells: HEK 293 (hGnRH-R/293, from Dr. Stuart Sealfon)
# Sequence (P30968 whole entry): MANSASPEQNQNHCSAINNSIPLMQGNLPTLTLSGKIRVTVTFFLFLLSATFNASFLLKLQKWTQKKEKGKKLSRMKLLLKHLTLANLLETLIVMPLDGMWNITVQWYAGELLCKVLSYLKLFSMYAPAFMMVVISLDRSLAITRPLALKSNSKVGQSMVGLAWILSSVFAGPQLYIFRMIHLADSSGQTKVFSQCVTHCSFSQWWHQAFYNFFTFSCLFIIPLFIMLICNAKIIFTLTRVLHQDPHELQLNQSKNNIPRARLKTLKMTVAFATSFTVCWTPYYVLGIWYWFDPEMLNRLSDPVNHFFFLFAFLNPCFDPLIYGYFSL
# assay protocol: Total inositol phosphates measurement, 293 cells containing the hGnRH receptor
# Assay type: cell-based
Field format: number, assumed nM, no unit text.

Q: Which Kb value belongs to Cc1cnc(CNC(=O)c2ccc(Cc3cc4c(cc3C)C(C)(C)CCC4(C)C)o2)cn1 [Compound 13] ?
A: 85

Q: Report Kb for Cc1cc2c(cc1Cc1ccc(C(=O)NCC3CCC(CNC(=N)N)CC3)o1)C(C)(C)CCC2(C)C (stereo not shown) [Compound 9] please.
A: 30

Q: What measured Kb goes with Cc1cc2c(cc1Cc1ccc(C(=O)NC[C@H]3CC[C@H](CNC(=N)N)CC3)o1)C(C)(C)CCC2(C)C [Compound 10] ?
A: 95

# input for lookup
Q: Data request, read-out Kb, for Cc1cc2c(cc1Cc1ccc(C(=O)NC[C@H]3CC[C@H](C(=O)O)CC3)o1)C(C)(C)CCC2(C)C [Compound 12]
A: 170
